// data source = patent US10189812B2

Test system: MHCC97L liver cancer cell strains
method: Tetrazolium salt reduction method (MTT) on human liver cancer cell strain MHCC97L
Type: cell-based
experimental_parameters: Homo sapiens, MHCC97L; MTT, cells cultured 3-5 days; read-out: MHCC97L IC50
readout: log10 IC50 (log10 of the value in µM)

{"columns": ["compound", "log10 IC50"],
 "data": [
  ["COc1cc(N=O)c2cc1Oc1ccc(cc1)C[C@H]1c3cc(c(OC)cc3CCN1C)Oc1c(OC)c(OC)cc3c1[C@H](C2)N(C)CC3 [Compound H-30]", 1.03],
  ["COc1cc([N+](=O)[O-])c2cc1Oc1ccc(cc1)C[C@H]1c3cc(c(OC)cc3CCN1C)Oc1c(OC)c(OC)c(Cl)c3c1[C@H](C2)N(C)CC3 [Compound H-43]", 0.94],
  ["CNC(=O)c1cc(Oc2ccc(NC(=O)Nc3ccc(Cl)c(C(F)(F)F)c3)cc2)ccn1 [Sorafenib, reference compound]", 1.54],
  ["COc1cc(S(=O)(=O)O)c2cc1Oc1ccc(cc1)C[C@H]1c3cc(c(OC)cc3CCN1C)Oc1c(OC(=O)c3ccccc3)c(OC)cc3c1[C@H](C2)N(C)CC3 [Compound H-45]", 0.95],
  ["COc1cc([N+](=O)[O-])c2cc1Oc1ccc(cc1)C[C@H]1c3cc(c(OC)cc3CCN1C)Oc1c(OC)c(OC)c([N+](=O)[O-])c3c1[C@H](C2)N(C)CC3 [Compound H-28]", 0.91],
  ["COc1cc(N)c2cc1Oc1ccc(cc1)C[C@H]1c3cc(c(OC)cc3CCN1C)Oc1c(OC)c(OC)cc3c1[C@H](C2)N(C)CC3 [Compound H-29]", 1.00],
  ["COc1cc(NC(=O)CO)c2cc1Oc1ccc(cc1)C[C@H]1c3cc(c(OC)cc3CCN1C)Oc1c(OC)c(OC)cc3c1[C@H](C2)N(C)CC3 [Compound H-12]", 0.96],
  ["COc1cc(S(=O)(=O)Nc2ccccc2)c2cc1Oc1ccc(cc1)C[C@H]1c3cc(c(OC)cc3CCN1C)Oc1c(OC)c(OC)cc3c1[C@H](C2)N(C)CC3 [Compound H-38]", 1.03],
  ["COc1cc(S(=O)(=O)OC)c2cc1Oc1ccc(cc1)C[C@H]1c3cc(c(OC)cc3CCN1C)Oc1c(OC)c(OC)cc3c1[C@H](C2)N(C)CC3 [Compound H-39]", 1.00],
  ["COc1cc(Cl)c2cc1Oc1ccc(cc1)C[C@H]1c3cc(c(OC)cc3CCN1C)Oc1c(OC)c(OC)c(Br)c3c1[C@H](C2)N(C)CC3 [Compound H-54]", -0.40],
  ["COc1cc2c3cc1Oc1c(OC)c(OC)c(Br)c4c1[C@H](Cc1c(S(=O)(=O)O)cc(OC)c(c1Br)Oc1ccc(cc1)C[C@@H]3N(C)CC2)N(C)CC4 [Compound H-41]", 0.93],
  ["COc1ccc2cc1Oc1ccc(cc1)C[C@H]1c3cc(c(OC)cc3CCN1C)Oc1c(ON=O)c(OC)cc3c1[C@H](C2)N(C)CC3 [Compound H-42]", 0.98]
]}

====

Test system: PLC/PRF/5 liver cancer cell strains
method: Tetrazolium salt reduction method (MTT) on human liver cancer cell strain PLC/PRF/5
Assay type: cell-based
experimental_parameters: Homo sapiens, PLC-PRF-5; MTT, cells cultured 3-5 days; read-out: PLC/PRF/5 IC50
// assign MET if IC50 falls strictly below 10 µM, else NOT MET (ties count as NOT MET)

{"columns": ["molecule", "system_tested", "classification"],
 "data": [
  ["COc1cc(S(=O)(=O)O)c2cc1Oc1ccc(cc1)C[C@H]1c3cc(c(OC)cc3CCN1C)Oc1c(OC(=O)c3ccccc3)c(OC)cc3c1[C@H](C2)N(C)CC3", "PLC/PRF/5 liver cancer cell strains", "NOT MET"],
  ["C=C(OC)/C(OC)=C1/Oc2cc3c(cc2OC)CCN(C)[C@H]3Cc2ccc(cc2)Oc2cc(c(S(=O)(=O)O)cc2OC)C[C@H]2C1=CCCN2C", "PLC/PRF/5 liver cancer cell strains", "MET"],
  ["COc1cc(S(=O)(=O)O)c2cc1Oc1ccc(cc1)C[C@H]1c3cc(c(OC)cc3CCN1C)Oc1c(O)c(OC)cc3c1[C@H](C2)N(C)CC3", "PLC/PRF/5 liver cancer cell strains", "MET"],
  ["CNC(=O)c1cc(Oc2ccc(NC(=O)Nc3ccc(Cl)c(C(F)(F)F)c3)cc2)ccn1 [Sorafenib, reference compound]", "PLC/PRF/5 liver cancer cell strains", "NOT MET"],
  ["COc1cc([N+](=O)[O-])c2cc1Oc1ccc(cc1)C[C@H]1c3cc(c(OC)cc3CCN1C)Oc1c(OC(=O)c3ccccc3)c(OC)cc3c1[C@H](C2)N(C)CC3", "PLC/PRF/5 liver cancer cell strains", "MET"],
  ["COc1cc([N+](=O)[O-])c2cc1Oc1ccc(cc1)C[C@H]1c3cc(c(OC)cc3CCN1C)Oc1c(OC)c(OC)c([N+](=O)[O-])c3c1[C@H](C2)N(C)CC3", "PLC/PRF/5 liver cancer cell strains", "NOT MET"]
]}
